- Test system: HCV replicon cells
- Method summary: HCV replicon FRET assay
- Assay type: cell-based
- Condition label: Hepatitis C virus, HCV replicon cells, FRET assay; read-out: EC50
Reported property: EC50

q: Can you share its EC50? I mean this molecule: CC(C)c1ccc2c(c1)C1CC1(C(=O)N1CCOCC1)Cn1c-2c(C2CCCCC2)c2ccc(C(=O)O)cc21 (stereo not shown)
a: 20 to 1000 nM

q: Can you share its EC50? I mean this molecule: COc1ccc2c(c1)C1C[C@]1(C(=O)N[C@@H]1C3CCC(C)([C@@H]1O)C3(C)C)Cn1c-2c(C2CCCCC2)c2ccc(C(=O)NS(=O)(=O)N(C)C)cc21 (stereo partly shown)
a: 20 to 1000 nM

q: Can you share its EC50? I mean this molecule: COc1ccc2c(c1OCc1ccccc1)C1CC1(C(=O)O)Cn1c-2c(C2CCCCC2)c2ccc(C(=O)NS(=O)(=O)N(C)C)cc21 (stereo not shown)
a: > 1000 nM

q: Can you share its EC50? I mean this molecule: COc1ccc2c(c1)C1CC1(C(=O)N1CCOCC1)Cn1c-2c(C2CCCCC2)c2ccc(C(=O)NS(=O)(=O)C3CC3)cc21 (stereo not shown)
a: 20 to 1000 nM

q: Can you share its EC50? I mean this molecule: COc1ccc2c(c1)C1CC1(C(=O)N1C[C@@H](C)O[C@@H](C)C1)Cn1c-2c(C2CCCCC2)c2ccc(C(=O)NS(C)(=O)=O)cc21 (stereo partly shown)
a: 97 to 1000 nM

q: Can you share its EC50? I mean this molecule: COc1ccc2c(c1)[C@@H]1C[C@]1(C(=O)N1CCCC[C@H]1CN(C)C)Cn1c-2c(C2CCCCC2)c2ccc(C(=O)NS(=O)(=O)N(C)C)cc21
a: 97 to 1000 nM

q: Can you share its EC50? I mean this molecule: CC(C)Oc1ccc2c(c1)C1CC1(C(=O)N1CCOCC1)Cn1c-2c(C2CCCCC2)c2ccc(C(=O)NS(=O)(=O)N(C)C)cc21 (stereo not shown)
a: 20 to 1000 nM

* * *

- System: HCV replicon cells
- Method summary: HCV replicon FRET assay
- Type: cell-based
- Condition label: Hepatitis C virus, HCV replicon cells, FRET assay; read-out: EC50
- Excerpt: FRET Assay Preparation. To perform the HCV FRET screening assay, 96-well cell culture plates were used. The FRET peptide (Anaspec, Inc.) (Taliani et al., Anal. Biochem. 1996, 240, 60-67) contains a fluorescence donor, EDANS, near one end of the peptide and an acceptor, DABCYL, near the other end. […] Assays. […] The plate was then placed into the Cytoflour 4000 instrument which had been set to 340 excite/490 emission, automatic mode for 20 cycles and the plate read in a kinetic mode. […]
pEC50: −log10 of the molar value.
What pEC50 was measured for each of the following?

q: Can you share its pEC50? I mean this compound: COc1ccc2c(c1)C1C[C@@]1(C(=O)O)Cn1c-2c(C2CCCCC2)c2ccc(C(=O)NS(=O)(=O)N(C)C)cc21 (single isomer, unassigned)
a: 5.00 to 6.00

q: Can you share its pEC50? I mean this compound: CCN(CC)C(=O)CN(C)C(=O)C12CC1c1cc(OC)ccc1-c1c(C3CCCCC3)c3ccc(C(=O)NS(=O)(=O)N(C)C)cc3n1C2 (centres unmarked)
a: 6.00 to 7.70

q: Can you share its pEC50? I mean this compound: CN(C)S(=O)(=O)NC(=O)c1ccc2c(C3CCCCC3)c3n(c2c1)CC1(C(=O)N2CCOCC2)CC1c1cc(O)ccc1-3 (centres unmarked)
a: 6.00 to 7.70

q: Can you share its pEC50? I mean this compound: Cc1ccc2c(c1)C1CC1(C(=O)N1CCOCC1)Cn1c-2c(C2CCCCC2)c2ccc(C(=O)O)cc21 (centres unmarked)
a: 6.00 to 7.70

q: Can you share its pEC50? I mean this compound: COC(=O)c1ccc2c(C3CCCCC3)c3n(c2c1)CC1(C(=O)N2CCOCC2)CC1c1cc(OC(C)C)ccc1-3 (centres unmarked)
a: 6.00 to 7.70

q: Can you share its pEC50? I mean this compound: COc1ccc2c(c1)C1CC1(C(=O)N1CCOCC1)Cn1c-2c(C2CCCCC2)c2ccc(C(=O)NS(=O)(=O)N3CCN(C)CC3)cc21 (centres unmarked)
a: 6.00 to 7.70

q: Can you share its pEC50? I mean this compound: CCN(CC)C1CCN(C(=O)C23CC2c2cc(OC)ccc2-c2c(C4CCCCC4)c4ccc(C(=O)NS(=O)(=O)N(C)C)cc4n2C3)CC1 (centres unmarked)
a: 6.00 to 7.70

q: Can you share its pEC50? I mean this compound: COC(=O)c1ccc2c(C3CCCCC3)c3n(c2c1)CC1(C(=O)N2CCOCC2)CC1c1ccccc1-3 (centres unmarked)
a: 6.00 to 7.70

q: Can you share its pEC50? I mean this compound: COC(=O)C12CC1c1cc(OC)ccc1-c1c(C3CCCCC3)c3ccc(C(=O)OC(C)(C)C)cc3n1C2 (centres unmarked)
a: < 5.00

q: Can you share its pEC50? I mean this compound: COc1ccc2c(c1)C1CC1(C(=O)N1CCOCC1)Cn1c-2c(C2CCCCC2)c2ccc(C(=O)O)cc21 (centres unmarked)
a: 6.00 to 7.70

q: Can you share its pEC50? I mean this compound: CCc1ccc2c(c1)C1CC1(C(=O)N1CCOCC1)Cn1c-2c(C2CCCCC2)c2ccc(C(=O)NS(=O)(=O)N(C)C)cc21 (centres unmarked)
a: 6.00 to 7.70

q: Can you share its pEC50? I mean this compound: COc1ccc2c(c1)C1CC1(C(=O)N1CCC(N3CCOCC3)CC1)Cn1c-2c(C2CCCCC2)c2ccc(C(=O)O)cc21 (centres unmarked)
a: 6.00 to 7.70

q: Can you share its pEC50? I mean this compound: CCN(C)CCN(C)C(=O)C12CC1c1cc(OC)ccc1-c1c(C3CCCCC3)c3ccc(C(=O)NS(=O)(=O)N(C)C)cc3n1C2 (centres unmarked)
a: 6.00 to 7.01

q: Can you share its pEC50? I mean this compound: COC(=O)C12CC1c1cc(O)ccc1-c1c(C3CCCCC3)c3ccc(C(=O)NS(=O)(=O)N(C)C)cc3n1C2 (centres unmarked)
a: 6.00 to 7.70
